# growth per record follows
tested on: SR leukemia; test: NCI-60 one-dose screen, 48 h (100 = growth as untreated, 0 = no growth, -100 = all killed); conditions: 10 µM
About 83,000 compounds went through this panel and 20% of them were active in at least one assay; those are over-represented in the sample as a whole.
measured-endpoint: growth (%)

COc1ccc2oc(=O)cc(C3c4ccc([nH]4)C(c4cc(=O)oc5ccc(OC)cc45)c4ccc([nH]4)C(c4cc(=O)oc5ccc(OC)cc45)c4ccc([nH]4)C(c4cc(=O)oc5ccc(OC)cc45)c4ccc3[nH]4)c2c1 (stereo unspecified): -15.9
O=C(N/N=c1/ccoc2cccnc12)N1CCN(c2ncccn2)CC1: 20.6
O=c1c2cccc3c(Nc4ccc(Br)cn4)ccc(c32)c2nc3ccccc3n12: 52.9
Cc1nc2sccn2c1-c1csc(Nc2cccc(Cl)c2C)n1: 17.7
CCOC(=S)Sc1ccc([N+](=O)[O-])cc1[N+](=O)[O-]: 18.3
Cc1cc(OI)c(C(C)C)cc1-c1cc(C(C)C)c(OI)cc1C: 84.8
Nc1c(C(=O)Nc2ccccc2F)sc2nc3c(cc12)C(=O)CCC3: 36.7
S=c1c2ncccc2c(-c2ccccn2)nn1Cc1ccccn1: 87.2
C[C@@H]1C(=O)N(C[C@H](Cc2ccccc2)NC(=O)OCc2ccccc2)[C@]1(Cc1ccccc1)C(=O)OCc1ccccc1: 35.2
Nc1ccc(C2=CC(c3ccc(Cl)cc3)N3C=CSC3=N2)cc1 (stereo unspecified): -11.5
CCCCCCCCCCCCCC[n+]1ccc(C)cc1: -38.2
O=C(Nc1cccc(Cl)c1)OCC(COC(=O)Nc1cccc(Cl)c1)(COC(=O)Nc1cccc(Cl)c1)[N+](=O)[O-]: 22.4
COc1ccc(-c2nsc3c2NC(=O)CC3c2ccc(Cl)cc2)cc1 (stereo unspecified): 67.8
O=[N+]([O-])c1ccc(Br)o1: 108
O=C(NNc1nc(N2CCCC2)nc(N2CCCC2)n1)c1ccccc1: 70.8
O=c1oc2cc(OS(=O)(=O)C3CC3)ccc2c2c1CCCCCC2: 52.7
CCC(CCNc1cc(OC)cc2cccnc12)CN1C(=O)c2ccccc2C1=O (stereo unspecified): 109
COc1cc(/C=C/C(=O)c2cc(-c3ccccc3)ccc2O)cc(OC)c1OC: 43.4
O=C(Nc1ccc(OS(=O)(=O)Cc2ccccc2)cc1)C12CC3CC(CC(C3)C1)C2: 30.3
CC(=O)Oc1ccc(C2=Cc3ccc(OC(C)=O)cc3OC2C)cc1 (stereo unspecified): 8.85
CCC(O)c1ccc(Br)cc1NC(=O)c1cccc(Cl)c1 (stereo unspecified): 8.25
